- Tested on: P388 leukemia ip, CD2F1 mice, survival T/C
- PROTOCOL: NCI In Vivo Anticancer Drug Screen. Data for tumor model P388 Leukemia (intraperitoneal) in CD2F1 (CDF1) mice
- PROTOCOL CONDITIONS: endpoint: median survival time; dose: 100.0 mg/kg/injection; schedule: Q01DX009 (ip); vehicle: saline with Tween-80; higher = longer survival
Inconclusive results and toxic doses are left out.
T/C values, listed per item
MEASUREMENT TYPE: T/C

INSERT INTO assay_data (compound, result_value) VALUES
  ('COc1cc(C(=O)NC2CC2)cc(OC)c1OC', '107 % of control'),
  ('N#CN=CN1CCN(c2ccccc2)CC1', '97 % of control'),
  ('COC(=O)C12N=NN(c3ccccc3)C1(C(=O)OC)C1CCC2C1 (stereo not drawn)', '95 % of control'),
  ('CCS', '92 % of control'),
  ('Cc1coc2c1C(=O)C(=O)c1c-2ccc2c1CCCC2(C)CO (stereo not drawn) (tested in a mixture with another compound)', '95 % of control'),
  ('CC(=NC(C)(C)C)Nc1ccc(Cl)cc1', '109 % of control'),
  ('C=CCOC(=O)C1=C(O[Si]C(C)(C)C)CCCC1', '99 % of control'),
  ('Cc1ccc2ccc(CC(O)(c3ccccc3)c3ccccc3)nc2c1', '88 % of control'),
  ('COC(=O)c1cc2c(s1)C(=O)c1ccccc1-2', '103 % of control'),
  ('Clc1ccc(S/N=C/c2ccccc2)cc1', '114 % of control'),
  ('CS(=O)(=O)/C=C/c1ccccc1', '90 % of control'),
  ('NC(CC(C(=O)O)c1ccccc1)C(=O)O (stereo not drawn)', '94 % of control'),
  ('CN(C)/C=N/c1c(CO)c(-c2ccccc2)nn1-c1ccccc1', '100 % of control'),
  ('S=C(c1c(Cl)cccc1Cl)N1CN(Cc2ccc(Cl)cc2)CN(Cc2ccc(Cl)cc2)C1', '96 % of control'),
  ('O=S(=O)(Cl)C(F)(F)C(F)(F)C(F)(F)C(F)(F)C(F)(F)C(F)(F)F', '112 % of control'),
  ('CC1(C)C/C(=C\c2cc(O)ccc2[N+](=O)[O-])C(=O)c2ccccc21', '86 % of control'),
  ('NS(=O)(=O)/C=C(\Cl)c1ccccc1', '94 % of control'),
  ('COc1ccc2c(c1OC)C(=O)OC2c1cc(Br)c(O)c(C2OC(=O)c3c2ccc(OC)c3OC)c1 (stereo not drawn)', '86 % of control'),
  ('CCCCCCCCCOCC(=O)O', '99 % of control'),
  ('CC1(C)COC(=O)C(C)(C2(C)NC(C)(C)COC2=O)N1 (stereo not drawn)', '101 % of control'),
  ('C(=C\C1CC2CCCN2O1)/c1ccccc1 (stereo not drawn)', '100 % of control'),
  ('COC(=O)C1C(=O)CC2C(C(=O)OC)C(=O)CC12 (stereo not drawn)', '95 % of control'),
  ('CC1=C(c2ccccc2)C2(c3ccccc3)OC(c3ccc([N+](=O)[O-])cc3)=NOC2(C)C1 (stereo not drawn)', '93 % of control');
